# assay target: HCV polymerase (Hepatitis C virus genotype 1b, UniProt P26663)
# Construct: 2.5 pmoles (0.15 μg) HCV polymerase protein in a final volume of 75 μL
# Sequence (P26663 2420-3010): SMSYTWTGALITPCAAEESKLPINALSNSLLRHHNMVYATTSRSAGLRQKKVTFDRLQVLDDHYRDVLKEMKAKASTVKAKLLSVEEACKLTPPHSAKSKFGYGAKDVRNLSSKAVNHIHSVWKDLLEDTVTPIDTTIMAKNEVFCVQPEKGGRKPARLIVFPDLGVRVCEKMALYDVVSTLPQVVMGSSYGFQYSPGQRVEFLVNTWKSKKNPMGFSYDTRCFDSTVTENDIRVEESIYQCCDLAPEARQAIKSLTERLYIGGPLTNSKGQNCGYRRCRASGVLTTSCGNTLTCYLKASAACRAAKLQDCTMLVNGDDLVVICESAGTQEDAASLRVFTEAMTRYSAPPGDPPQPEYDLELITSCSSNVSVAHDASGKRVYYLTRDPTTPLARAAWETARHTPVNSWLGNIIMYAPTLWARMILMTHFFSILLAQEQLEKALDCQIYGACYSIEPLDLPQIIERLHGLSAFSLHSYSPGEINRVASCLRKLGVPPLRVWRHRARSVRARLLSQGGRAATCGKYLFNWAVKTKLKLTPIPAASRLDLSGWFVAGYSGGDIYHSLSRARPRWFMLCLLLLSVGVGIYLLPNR
# assay remarks: HCV polymerase primer/template-directed transcription assay (32P-GTP incorporation, filter binding)
# Assay type: biochemical
# stated conditions: recombinant HCV polymerase; 30 minutes at 30° C.; concentration giving 50% inhibition of polymerase-directed transcription; read-out: IC50
# Description: The compounds described herein were tested for activity with HCV polymerase. […] The filters were counted in a Packard Tri-Lux Microbeta scintillation counter (Packard Bioscience, Meriden, Conn.). […]
Entries and their IC50 values follow.
Just the number in nM, nothing appended.

Solved cases (3 shown):
COc1cc(OC)c(CCC2(C3CCCC3)CC(O)=C(Cc3nc4ccsc4c(=O)[nH]3)C(=O)O2)cc1Cl (stereo not shown) [B(64)] | 33
CC(C)(C#N)c1ccc(CCC2(C3CCCC3)CC(O)=C(Cc3cccc(S(C)(=O)=O)c3)C(=O)O2)cc1F (stereo not shown) [A(101)] | 66
CC(C)(C#N)c1ccc(CCC2(C3CCCC3)CC(O)=C(Cc3cc[nH]c(=O)c3)C(=O)O2)cc1F (stereo not shown) [A(99)] | 17

Need IC50, item COc1ccc(CCC2(C3CCCC3)CC(=O)C(Cc3ccc4ccccc4n3)C(=O)O2)cc1Cl (stereo not shown) [B(85)]
740
